Where these numbers come from: the supplement of paper PMC9732359

We begin with a simple list: items and their reported protein stability index.
assay: protein stability index of a GFP-peptide fusion (yeast GPS) (PSI 1-4); higher = more stable; sorted into four equal gates, so the index is relative within each strain; conditions: san1∆
measurement kind: protein stability index

sequence_input="LDKLDEILYYQIKTLPE [AAR2]" measurement_kind="protein stability index" recorded_number=3
sequence_input="FMDNSYDIDEIDHSDES [ESC2]" measurement_kind="protein stability index" recorded_number=2.66
sequence_input="QITLTFISELCSIEPIA [YML103C/NUP188]" measurement_kind="protein stability index" recorded_number=1.48

====

assay: protein stability index of a GFP-peptide fusion (yeast GPS) (PSI 1-4); higher = more stable; sorted into four equal gates, so the index is relative within each strain; conditions: pdr5∆
measurement kind: protein stability index

sequence_input="NFLETIASTEKPENKTD [SIR4]" recorded_number=2.93
sequence_input="HRDKNKMDMICRNINRK [DIS3]" recorded_number=2.99
sequence_input="ASISLPNHIPSVNPSNK [SWP82]" recorded_number=3.05
sequence_input="GSPQMLANEERLSNEMH [RGR1]" recorded_number=2.95
sequence_input="STGLKNASDALKGRVVE [RPS1B]" recorded_number=3.04
sequence_input="LELIGVLSINPDMYERK [MED7]" recorded_number=2.98

====

assay: protein stability index of a GFP-peptide fusion (yeast GPS) (PSI 1-4); higher = more stable; sorted into four equal gates, so the index is relative within each strain; settings: doa10∆
We begin with a simple list: items and their reported protein stability index.
measurement kind: protein stability index

sequence_input="AALDITNVQRIAAYIRR [SMC1]" recorded_number=3.08
sequence_input="TSELGNDDFSEVFEFKT [BRR2]" recorded_number=3.04
sequence_input="FKQKLNELLKCKDDVQL [MTW1]" recorded_number=2.93
sequence_input="GAALKDIEIVRVNKNAP [FAS2]" recorded_number=3.09
sequence_input="QANTEPENITKREASRG [MCD1]" recorded_number=3.01

====

We begin with a simple list: items and their reported protein stability index.
assay: protein stability index of a GFP-peptide fusion (yeast GPS) (PSI 1-4); higher = more stable; sorted into four equal gates, so the index is relative within each strain; settings: san1∆
measurement kind: protein stability index

sequence_input="DANLLGAEVLIKGSKLS [COR1]" recorded_number=2.63
sequence_input="GFDIQKSCEPVSISTSV [SIR4]" recorded_number=1.51
sequence_input="ALTQMDQDKVNFASGDN [RPB3]" recorded_number=3.08
sequence_input="TATNSKGEQIAIFPYQD [ECM29]" recorded_number=3.29

====

experiment: protein stability index of a GFP-peptide fusion (yeast GPS) (PSI 1-4); higher = more stable; sorted into four equal gates, so the index is relative within each strain; conditions: doa10∆
We begin with a simple list: items and their reported protein stability index.
measurement kind: protein stability index

sequence_input="IILGTNLYDGAEHKYMP [BRR2]" measurement_kind="protein stability index" result=3.06
sequence_input="SQASSDLGETFRGIIRS [CSL4]" measurement_kind="protein stability index" result=3.17
sequence_input="RKMTTDDDINWQELARS [RPT5]" measurement_kind="protein stability index" result=1.79
sequence_input="VVVKNWGAETDELSMIM [RPS12]" measurement_kind="protein stability index" result=3.35
sequence_input="VQKDTAIIRLHPSIYTQ [POP1]" measurement_kind="protein stability index" result=2.73
sequence_input="DKKNKRLKFGHRLIATH [SNF2]" measurement_kind="protein stability index" result=2.02
sequence_input="DIQAMCTEAGLLALRER [RPT2]" measurement_kind="protein stability index" result=2.65
sequence_input="QIPLHRAASVGSLKLIE [NAS6]" measurement_kind="protein stability index" result=2.04
sequence_input="TLVAQNLKQANNVAYGK [SMC4]" measurement_kind="protein stability index" result=2.8
sequence_input="INFERIDEVFSWYLNTF [GRR1]" measurement_kind="protein stability index" result=2.22
sequence_input="LNELETLIKKKQDEKKS [SMC2]" measurement_kind="protein stability index" result=3.24
sequence_input="EGLDLLKLCVQELEKRM [PRE1]" measurement_kind="protein stability index" result=2.04
sequence_input="TQAKRIFLQQFLQELLK [SWI1]" measurement_kind="protein stability index" result=2.62
sequence_input="LNDRKVLFAAYKVEHPF [RPB11]" measurement_kind="protein stability index" result=1.72
sequence_input="AFSFGAKSNEDKQDGTA [YJL041W/NSP1]" measurement_kind="protein stability index" result=3.24
sequence_input="YGSSPKLLATSTKIIML [SRB8]" measurement_kind="protein stability index" result=1.59
sequence_input="AATVRSTIRRLREMVEA [RPL43A]" measurement_kind="protein stability index" result=3.02
sequence_input="VVRRRFRGNISQPKIGY [RPL32]" measurement_kind="protein stability index" result=2.85
sequence_input="AQLTLKRCKHFELGGEK [RPL42A]" measurement_kind="protein stability index" result=1.93
sequence_input="ANGTVVSFIKNGEEIVG [MTR3]" measurement_kind="protein stability index" result=1.34
sequence_input="VIWELDDSANIVNVNFM [DIS3]" measurement_kind="protein stability index" result=2.96

====

assay: protein stability index of a GFP-peptide fusion (yeast GPS) (PSI 1-4); higher = more stable; sorted into four equal gates, so the index is relative within each strain; details: pdr5∆
measurement kind: protein stability index

sequence_input="SIAAERYDYSDEVGRRS [YCG1]" recorded_number=2.99
sequence_input="AARKAANKEKRAIILER [RPL7A]" recorded_number=1.37
sequence_input="LNDVVSFLFSAIPLQQV [SWI1]" recorded_number=2.08
sequence_input="KWSKKSMKDRAQHAVIL [RPS25A]" recorded_number=2.42

====

assay: protein stability index of a GFP-peptide fusion (yeast GPS) (PSI 1-4); higher = more stable; sorted into four equal gates, so the index is relative within each strain; conditions: ubr1∆
measurement kind: protein stability index

sequence_input="SKINSTELLDYATKLSK [MED4]" measurement_kind="protein stability index" recorded_number=2.94
sequence_input="EEEMAPYYKYLCEEYLV [RPN7]" measurement_kind="protein stability index" recorded_number=2.64
sequence_input="AIKKKEKLLRHVDSLIE [SRB7]" measurement_kind="protein stability index" recorded_number=3.27
sequence_input="VITLLNNSSITLRCSVV [YCS4]" measurement_kind="protein stability index" recorded_number=1.16
sequence_input="TIERSLIEEEVEQDEGQ [YCS4]" measurement_kind="protein stability index" recorded_number=3.5
sequence_input="SSTQDVILRKISMLVTQ [CSI1]" measurement_kind="protein stability index" recorded_number=1.77
sequence_input="EKLLRHVDSLIEDFVDG [SRB7]" measurement_kind="protein stability index" recorded_number=3.24
sequence_input="ANICLTFLESINGINWR [SIN4]" measurement_kind="protein stability index" recorded_number=2.36
sequence_input="QPKPLFSFGKSDAAKEP [YOR098C/NUP1]" measurement_kind="protein stability index" recorded_number=2.72
sequence_input="ITDKTIKAFMDSTIGNS [IRR1]" measurement_kind="protein stability index" recorded_number=2.41
sequence_input="IYDKKDHKYVCTFSMEP [SRB8]" measurement_kind="protein stability index" recorded_number=3
sequence_input="PSLEVASEYIETLGLKY [FAS1]" measurement_kind="protein stability index" recorded_number=3.05
sequence_input="KNEETPQNEKPPAYALL [RPC25]" measurement_kind="protein stability index" recorded_number=2.74
sequence_input="LKELRIDNSPQAISYLH [GRR1]" measurement_kind="protein stability index" recorded_number=2.4
sequence_input="IYAGYDDRYGYQLYTSN [PRE9]" measurement_kind="protein stability index" recorded_number=2.34
sequence_input="RWYQLIATGCKDGRIRI [YGL100W/SEH1]" measurement_kind="protein stability index" recorded_number=2.43
sequence_input="ERNASEVRDATLNNIFR [GRR1]" measurement_kind="protein stability index" recorded_number=3.53
sequence_input="VKQEDMPFNDQGIVPDI [RET1]" measurement_kind="protein stability index" recorded_number=3.17
sequence_input="MVVNGPIPDARNAALRA [SCL1]" measurement_kind="protein stability index" recorded_number=2.35
sequence_input="ARVKAFDRHCNMVLENV [SMD2]" measurement_kind="protein stability index" recorded_number=1.87
sequence_input="HNVFSKEQTIQLPSKFT [RPN14]" measurement_kind="protein stability index" recorded_number=2.64
sequence_input="LQRASSKMGAPWCVKPE [ITC1]" measurement_kind="protein stability index" recorded_number=3.27
sequence_input="PRVQGFYVPQARNVTFD [GRR1]" measurement_kind="protein stability index" recorded_number=3.02
sequence_input="REKRDRTHFKRMRFPPF [PRP8]" measurement_kind="protein stability index" recorded_number=2.2
sequence_input="PSTSSNMDVGNPRKRKA [GAL11]" measurement_kind="protein stability index" recorded_number=3.27
sequence_input="GALVDRTQPWSIMPDLY [RPS0A]" measurement_kind="protein stability index" recorded_number=3.11
sequence_input="DGKEDVEKGTPLGKILL [SME1]" measurement_kind="protein stability index" recorded_number=3.56
sequence_input="SNYDWLFQLLNALTVGD [RPN9]" measurement_kind="protein stability index" recorded_number=2.56
sequence_input="KYIALQVIVDIFSVHGN [YCG1]" measurement_kind="protein stability index" recorded_number=1.75
sequence_input="LGKTIQTISLLTYLYEM [SNF2]" measurement_kind="protein stability index" recorded_number=2.38
sequence_input="NTFGSSSLFNNSTNSNT [YJL041W/NSP1]" measurement_kind="protein stability index" recorded_number=2.5
sequence_input="RSPTRRLELLQLSPVKN [SMC4]" measurement_kind="protein stability index" recorded_number=1.68
sequence_input="RWDKEEYQSLMSLKDKL [SMC1]" measurement_kind="protein stability index" recorded_number=3.09
sequence_input="EVFIGRVKDQDGRVNRF [YJR042W/NUP85]" measurement_kind="protein stability index" recorded_number=3.19
sequence_input="GYVIKVFNNGIVVLVPK [DIS3]" measurement_kind="protein stability index" recorded_number=2.82
sequence_input="LMRTFLYTLAQETEGTN [SIR3]" measurement_kind="protein stability index" recorded_number=2.35
sequence_input="KVPQQAAGKRISHIEKR [SMC1]" measurement_kind="protein stability index" recorded_number=3.15
sequence_input="PLLYNSLCTVWKPNPSY [SRB5]" measurement_kind="protein stability index" recorded_number=2.13
sequence_input="LKQNAIRARIPFYGSYT [SRP54]" measurement_kind="protein stability index" recorded_number=2.89
sequence_input="YDRATLTQLLSMMSDGI [RPO31]" measurement_kind="protein stability index" recorded_number=1.66
sequence_input="ASLDGTIRLWECGTGTT [RPN14]" measurement_kind="protein stability index" recorded_number=2.78
sequence_input="GYDKKKNKPELYQIDYL [PRE1]" measurement_kind="protein stability index" recorded_number=3.08
sequence_input="ELQGYIELSVPDRQSMD [SRB5]" measurement_kind="protein stability index" recorded_number=1.17
sequence_input="YVDPETTYTYQQPNPLQ [ROX3]" measurement_kind="protein stability index" recorded_number=2.86
sequence_input="NNVNEYSYTTIVLSDQT [YJL039C/NUP192]" measurement_kind="protein stability index" recorded_number=2.93
sequence_input="PKNQQYRAFGSIWQVKD [MED7]" measurement_kind="protein stability index" recorded_number=2.64
sequence_input="WGVNLPAHTVIIKGTDV [BRR2]" measurement_kind="protein stability index" recorded_number=2.58
sequence_input="NYYYLFDKKSFFNGKAL [PRP8]" measurement_kind="protein stability index" recorded_number=2.38
sequence_input="ADAGIELVDMAGAGEAN [MTR3]" measurement_kind="protein stability index" recorded_number=2.9
sequence_input="IRITSLQGDLTFTKKCL [SIR4]" measurement_kind="protein stability index" recorded_number=2.79
sequence_input="IFTEKIYKSIFNVVDVG [YJL039C/NUP192]" measurement_kind="protein stability index" recorded_number=1.33
